Assay: ATG_CMV_CIS: Attagene CIS-FACTORIAL HepG2 Assay for human CMV (Internal Marker) (AID 2282928);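 note: endpoint acts as a background internal control marker rather than a target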
Settings: HepG2 CMV promoter reporter, transcription factor profiling; actives raise or lower the signal
The source made the active and inactive calls. Rule for the calls: active = hit-call score of the fitted dose curve at least 0.9, where 1 is the maximum; inactive = score below 0.9.
Assign a class; possible classes are active, inactive

- compound: "C=CC(=O)OCCOC1C2CCC1C1CC=CC12 (stereo not drawn)"
  label.value: "inactive"

What classification did `C=C(C)c1cccc(C(C)(C)N=C=O)c1` end up with in this test?
inactive

What classification did `Nc1ccc(Oc2ccc(N)c(N)c2)cc1` end up with in this test?
active

###

Molecular target: Paired box protein Pax-6 (Homo sapiens) (UniProt P26367)
Sequence (P26367 whole entry, looked up): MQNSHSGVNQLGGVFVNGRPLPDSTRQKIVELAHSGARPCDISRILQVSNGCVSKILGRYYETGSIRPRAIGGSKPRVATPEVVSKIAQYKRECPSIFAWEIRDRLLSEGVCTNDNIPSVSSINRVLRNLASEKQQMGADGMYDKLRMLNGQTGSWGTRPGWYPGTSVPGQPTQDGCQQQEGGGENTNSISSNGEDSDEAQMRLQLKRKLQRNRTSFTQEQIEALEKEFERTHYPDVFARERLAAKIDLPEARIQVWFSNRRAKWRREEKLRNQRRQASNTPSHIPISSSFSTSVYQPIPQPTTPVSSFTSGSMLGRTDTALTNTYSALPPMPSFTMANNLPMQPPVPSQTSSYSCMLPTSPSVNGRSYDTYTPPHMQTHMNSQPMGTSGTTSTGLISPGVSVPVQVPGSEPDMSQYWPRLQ
Assay: ATG_Pax6_CIS: Attagene CIS-FACTORIAL HepG2 Assay for human Paired Box 6 (PAX6) (AID 2282956)
Details: HepG2 CIS-FACTORIAL PAX6 reporter transcription, RNA readout; actives raise or lower the signal
Activity calls are given as the source filed them. Rule for the calls: active = hit-call score of the fitted dose curve at least 0.9, where 1 is the maximum; inactive = score below 0.9.
Assign a class; possible classes are true (1) = active, false (0) = inactive

Answered examples (6):
- compound: "C(=CC=Nc1ccccc1)C=CNc1ccccc1"
  label.value: "false (0)"
- compound: "Cc1ccc(C(C)c2ccc(C)c(C)c2)cc1C"
  label.value: "false (0)"
- compound: "NCCCN1CCN(CCCN)CC1"
  label.value: "false (0)"
- compound: "CCCCCc1ccc(Cl)cc1"
  label.value: "false (0)"
- compound: "COc1cc(C)ccc1C(C)C"
  label.value: "false (0)"
- compound: "CCCCCCOc1cc(C)c(O)c(C)c1C"
  label.value: "false (0)"

What classification did `O=C1C=CC(=O)O1` end up with in this test?
false (0)

What classification did `CC(=O)Oc1ccc(C)cc1` end up with in this test?
false (0)

What classification did `CC=CC(F)(F)C(F)(F)C(F)(F)F` end up with in this test?
false (0)

What classification did `Cc1cc(C)c(C)c(C)c1` end up with in this test?
false (0)

What classification did `Cc1ccc2c(c1)C(=O)c1ccccc1C2=O` end up with in this test?
false (0)

What classification did `CN(C)CCCN(C)C` end up with in this test?
false (0)

What classification did `O=CN1CCCCC1` end up with in this test?
false (0)

What classification did `C=C(C)[C@H]1CC=C(C)CC1` end up with in this test?
false (0)

What classification did `CC(=O)OCC(=O)[C@@]12N=C(C)O[C@@H]1C[C@H]1[C@@H]3CCC4=CC(=O)C=C[C@]4(C)[C@H]3[C@@H](O)C[C@@]12C` end up with in this test?
false (0)

What classification did `COc1ccc(-c2coc3cc(O)ccc3c2=O)cc1` end up with in this test?
false (0)

What classification did C=CC(C)(CCC=C(C)C)OC(=O)CC(C)C (stereo unspecified) end up with in this test?
false (0)

What classification did `O=[N+]([O-])c1ccc(CO)cc1` end up with in this test?
false (0)

What classification did `C1=Cc2ccccc2C1` end up with in this test?
false (0)

What classification did `C=CC(C)(C)C` end up with in this test?
false (0)
